EC50 by entry:
Target: GLP-1R (Homo sapiens, UniProt P43220)
Sequence (P43220 24-463): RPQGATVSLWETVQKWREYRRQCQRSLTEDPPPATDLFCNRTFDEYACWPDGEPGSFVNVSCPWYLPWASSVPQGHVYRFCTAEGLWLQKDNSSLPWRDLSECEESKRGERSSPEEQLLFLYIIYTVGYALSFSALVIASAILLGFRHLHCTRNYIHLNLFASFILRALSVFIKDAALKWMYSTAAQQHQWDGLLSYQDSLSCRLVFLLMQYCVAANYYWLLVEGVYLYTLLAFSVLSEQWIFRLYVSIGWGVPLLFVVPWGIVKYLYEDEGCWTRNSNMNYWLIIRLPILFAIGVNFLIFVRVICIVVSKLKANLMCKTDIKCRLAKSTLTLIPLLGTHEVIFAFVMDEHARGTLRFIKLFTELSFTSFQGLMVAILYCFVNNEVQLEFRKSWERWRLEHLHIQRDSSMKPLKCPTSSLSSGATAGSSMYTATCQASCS
Assay: GLP-1R activation cAMP assay (Assay 1 or Assay 2)
Details: cAMP increase in CHO cells stably expressing GLP-1R; compounds run on one of the two cAMP assays

smiles entry: Cn1nc(COc2cccc(-c3cc(F)c(Cc4nc5ccc(C(=O)O)cc5n4C[C@@H]4CCO4)cc3F)n2)cc1C(F)(F)F
measurement target: GLP-1R (Homo sapiens, UniProt P43220)
EC50 [nM]: 0.29
//
smiles entry: O=C(O)c1ccc2nc(Cc3cc(F)c(-c4cccc(OCc5cn6ccncc6n5)n4)cc3F)n(C[C@@H]3CCO3)c2c1
measurement target: GLP-1R (Homo sapiens, UniProt P43220)
EC50 [nM]: 1.75
//
smiles entry: O=C(O)c1ccc2nc(Cc3cc(F)c(-c4cccc(OCc5ncc(-c6cnsc6)s5)n4)cc3F)n(C[C@@H]3CCO3)c2c1
measurement target: GLP-1R (Homo sapiens, UniProt P43220)
EC50 [nM]: 0.08
//
smiles entry: O=C(O)c1ccc2nc(Cc3cc(F)c(-c4cccc(OCc5cc6n(n5)CCOC6)n4)cc3F)n(C[C@@H]3CCO3)c2c1
measurement target: GLP-1R (Homo sapiens, UniProt P43220)
EC50 [nM]: 3.71
//
smiles entry: N#Cc1ccc(COc2cccc(-c3cc(F)c(Cc4nc5ccc(C(=O)O)cc5n4C[C@@H]4CCO4)cc3F)n2)s1
measurement target: GLP-1R (Homo sapiens, UniProt P43220)
EC50 [nM]: 0.31
//
smiles entry: O=C(O)c1ccc2nc(Cc3cc(F)c(-c4cccc(OCc5cnco5)n4)cc3F)n(C[C@@H]3CCO3)c2c1
measurement target: GLP-1R (Homo sapiens, UniProt P43220)
EC50 [nM]: 11.8
//
smiles entry: CCn1cc(Cl)c(COc2cccc(-c3cc(F)c(Cc4nc5ccc(C(=O)O)cc5n4C[C@@H]4CCO4)cc3F)n2)n1
measurement target: GLP-1R (Homo sapiens, UniProt P43220)
EC50 [nM]: 4.23

====

Target: GLP-1R (Homo sapiens, UniProt P43220)
Assay: GLP-1R activation cAMP assay (Assay 1 or Assay 2)
Details: cAMP increase in CHO cells stably expressing GLP-1R; compounds run on one of the two cAMP assays
EC50 by entry:

compound: O=C(O)c1ccc2nc(Cc3cc(F)c(-c4cccc(OCc5ccn(-c6cnn(C(F)F)c6)n5)n4)cc3F)n(C[C@@H]3CCO3)c2c1 [Example 83]
EC50 (nM): 3.51
--
compound: CCOc1nnc(COc2cccc(-c3cc(F)c(Cc4nc5ccc(C(=O)O)c(F)c5n4CCOC)cc3F)n2)s1 [Example 396]
EC50 (nM): 0.678
--
compound: CC1(C#Cc2cnc(COc3cccc(-c4cc(F)c(Cc5nc6c(F)cc(C(=O)O)cc6n5C[C@@H]5CCO5)cc4F)n3)c(Cl)c2)CC1 [Example 379]
EC50 (nM): 0.303
--
compound: CC1(C)COC[C@H]1n1c(Cc2cc(F)c(-c3cccc(OCc4nnc(C5CC5)s4)n3)cc2F)nc2ccc(C(=O)O)cc21 [Example 431]
EC50 (nM): 0.195
--
compound: COc1nnc(COc2nc(-c3cc(F)c(Cc4nc5ccc(C(=O)O)cc5n4[C@@H]4COCC4(C)C)cc3F)ccc2F)s1 [Example 339]
EC50 (nM): 0.043
--
compound: O=C(O)c1ccc2nc(Cc3cc(F)c(-c4cccc(OCc5nnc(OC6CC(C(F)F)C6)s5)n4)cc3F)n(C[C@@H]3CCO3)c2c1 (stereo partly shown) [Example 347]
EC50 (nM): 0.271
--
compound: Cc1cc(Cc2nc3c(F)cc(C(=O)O)cc3n2[C@@H]2COCC2(C)C)c(F)cc1-c1ccc(F)c(OCc2ncc(C(F)(F)F)s2)n1 [Example 436]
EC50 (nM): 0.367
--
compound: O=C(O)c1cc(F)c2nc(Cc3cc(F)c(-c4cccc(OCc5ncc(C#CC6(C(F)F)CC6)cc5Cl)n4)cc3F)n(C[C@@H]3CCO3)c2c1 [Example 381]
EC50 (nM): 0.301
--
compound: Cc1ncc(COc2cccc(-c3cc(F)c(Cc4nc5ccc(C(=O)O)cc5n4C[C@@H]4CCO4)cc3F)n2)n1C [Example 179]
EC50 (nM): 4.59
--
compound: Cn1c(COc2cccc(-c3cc(F)c(Cc4nc5ccc(C(=O)O)cc5n4C[C@@H]4CCO4)cc3F)n2)nc2ccccc21 [Example 48]
EC50 (nM): 2.33
--
compound: COc1cc(C#Cc2cnn(C)c2)ccc1COc1cccc(-c2cc(F)c(Cc3nc4ccc(C(=O)O)cc4n3C[C@@H]3CCO3)cc2F)n1 [Example 304]
EC50 (nM): 0.524
--
compound: Cn1nc(COc2cccc(-c3cc(F)c(Cc4nc5ccc(C(=O)O)cc5n4C[C@@H]4CCO4)cc3F)n2)cc1-c1cnn(C(F)F)c1 [Example 110]
EC50 (nM): 0.95
--
compound: CC(=O)N1CC(Oc2nnc(COc3cccc(-c4cc(F)c(Cc5nc6ccc(C(=O)O)cc6n5C[C@@H]5CCO5)cc4F)n3)s2)C1 [Example 348]
EC50 (nM): 1.87
